- Tested on: Vero E6
- assay protocol: relative viability EC50 (midpoint between 100% and the lowest measured viability); higher = less toxic
- experimental parameters: 72 h
Below, each entry is listed alongside its reported relative viability EC50.

Use these answered entries as a reference point.
compound	relative viability EC50
CCCCC(=O)NCCc1c(Cc2ccccc2)[nH]c2ccccc12	> 10 µM
CC(=O)N(OCc1ccccc1)[C@@H]1c2cc(C#N)ccc2OC(C)(C)[C@H]1O	> 10 µM
CN1CCCCC1CCN1c2ccccc2Sc2ccc([S+](C)[O-])cc21 (stereo not given)	> 10 µM

For the next question, use this compound.
// sample C1CCC2(CC1)CCNCC2 [4,4-pentamethylenepiperidine] , its relative viability EC50 was > 10 µM

Value source: the supplement of paper PMC13380429
